cell number change reference
protocol_text: qHTS Assay for Lipid Storage Modulators in Drosophila S3 Cells;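 also: cells counted by Cell Tracker Red CMTPX staining in the red channel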
experimental_context: BODIPY lipid droplet fluorescence, 18-24 h, cells fed with added oleic acid; measured here: cell count max response
The campaign covered roughly 320,000 compounds. About 2,100 (0.66%) were called active. Inconclusive results (about 53%) are left out. The full list was thinned out, with actives kept by preference.
Dear colleague, please return just the value in %, with no unit written.

Recorded results for 5 compounds are shown here.
CC(=O)Nc1ccc2nc(NS(=O)(=O)c3ccc(C)cc3)sc2c1 : 2.04
O=C(c1ccccc1)N1CCN=C1SCc1ccc([N+](=O)[O-])cc1 : 12
O=S(=O)(Nc1ccc(Cl)cn1)c1ccccc1 : 14.4
CCOC(=O)CNc1c(-c2ccc(O)cc2)nc2ccccn12 : 4.87
CSc1c(CC(=O)NCCCO)n(Cc2ccccc2)c2ccccc12 : -1.72

# return recorded cell number change for input `Cc1cc(C)cc(C(=O)N2CCN=C2SCc2ccc([N+](=O)[O-])cc2)c1`
28.4

Write down cell number change measured for item CCCNC(=O)Cn1cnc2sc(C(=O)N3CCCC(C(=O)OCC)C3)c(C)c2c1=O (configuration not stated)
-16.1

Fill in cell number change for record `Cc1[nH]c(=S)c(C#N)c(-c2ccccc2)c1C(=O)Nc1ccccc1`
-24.7

----------
protocol_text: qHTS Assay for Lipid Storage Modulators in Drosophila S3 Cells;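 also: cells counted by Cell Tracker Red CMTPX staining in the red channel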
experimental_context: BODIPY lipid droplet fluorescence, 18-24 h, cells fed with added oleic acid; measured here: cell count max response
Among all 320,000 compounds or so, about 2,100 (0.66%) were called active. Not shown: some 53% with an inconclusive outcome. This is one part of a sample in which actives are shown more often than they occur.
measure: cell number change (%)
Reply with just the number (in %).

COc1ccc(-c2cc(C(=O)NN)[nH]n2)cc1OC : 0.0556
O=C1NC2c3ccccc3CC2O1 (stereo not drawn) : 17.5
CCOC(=O)C1=C(C)N=C2SCCC(=O)N2C1c1cccs1 (stereo not drawn) : -2.29
Cc1ccc2nc(NC(=O)CSc3nnc(C)c(=O)n3N)sc2c1 : 0.333
CC(=O)NCCNC(=O)c1ccc(-n2c(C)ccc2C)cc1 : -0.679
Cn1cc(CN2CCC(N3CCNC(=O)CC3)CC2)c(-c2ccccc2F)n1 : -9.69

Now turn to the next molecule.
Indicate the recorded cell number change value for this molecule: `Cc1cccn2c(=O)c3cc(C(N)=S)c(=N)n(CCCOC(C)C)c3nc12`
3.82

----------
Form field: cell number change (one value per entry).
protocol_text: qHTS Assay for Lipid Storage Modulators in Drosophila S3 Cells;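 also: cells counted by Cell Tracker Red CMTPX staining in the red channel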
experimental_context: BODIPY lipid droplet fluorescence, 18-24 h, cells fed with added oleic acid; measured here: cell count max response
Out of some 320,000 compounds screened, about 2,100 (0.66%) were called active. Not shown: some 53% with an inconclusive outcome. The sample as a whole holds a higher share of actives than the screen did.
Numbers only; they are read as %.

// below: answered compounds
CC1(C)N=C(/C=N/O)C=[N+]1[O-] : -9.07
O=C(CCC(=O)NNC(=O)COc1ccc(Br)cc1)NCc1ccccc1 : 6.5
O=C(CN1C(=O)NC2(CCc3ccccc32)C1=O)c1ccccc1 (stereo not drawn) : 29.9

Please supply the value of reported cell number change for the item COc1ccc(NC(=O)CC(NCCc2ccccc2)C(=O)O)c(OC)c1 (stereo not drawn)
2.02

# return recorded cell number change for input `Clc1ccccc1-c1ncnc2ccc(Br)cc12`
-18.5

Provide only the value of recorded cell number change for O=Cc1ccc(N2N=C(c3ccccc3)CC2c2ccccc2)cc1 (stereo not drawn)
-15.5
